FYI, the data here is from PubChem BioAssay AID2060907.

# Tested on: 388556-164-R-J1-PDC complex spheroid viability;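 further: spheroids exposed to compound for 7 days before readout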
# assay-details: Anticancer human tumor 388556-164-R-J1-PDC patient-derived colon adenocarcinoma cell line growth inhibition [RAS]
# experimental-parameters: second compound 0.00949 µM; first compound 0.0316 µM; stronger effect = lower value
Simple rule here: viability, T/C less than 70% is y, otherwise n.

Lab note: viability, T/C threshold 70%. Does this compound come in strictly under it? C[C@@H](NC(=O)c1ncnc(N)c1Cl)c1ncc(C(=O)Nc2cc(C(F)(F)F)c(Cl)cn2)s1 + CCn1c(-c2cc(N3CCN(C)CC3)cnc2C(C)OC)c2c3cc(ccc31)-c1csc(n1)CC(NC(=O)C1CC1C)C(=O)N1CCCC(N1)C(=O)OCC(C)(C)C2 n

Lab note: viability, T/C threshold 70%. Does this compound come in strictly under it? NC1c2ccccc2OC12CCN(c1cnc3c(N4CCCc5ncccc54)n[nH]c3n1)CC2 (stereo not given) + CCn1c(-c2cc(N3CCN(C)CC3)cnc2C(C)OC)c2c3cc(ccc31)-c1csc(n1)CC(NC(=O)C1CC1C)C(=O)N1CCCC(N1)C(=O)OCC(C)(C)C2 y

Lab note: viability, T/C threshold 70%. Does this compound come in strictly under it? Nc1ccn(C2OC(CO)C(O)C2(F)F)c(=O)n1 (stereo not given) + CCn1c(-c2cc(N3CCN(C)CC3)cnc2C(C)OC)c2c3cc(ccc31)-c1csc(n1)CC(NC(=O)C1CC1C)C(=O)N1CCCC(N1)C(=O)OCC(C)(C)C2 y

Lab note: viability, T/C threshold 70%. Does this compound come in strictly under it? CC(=O)OC12COC1CC(O)C1(C)C(=O)C(O)C3=C(C)C(OC(=O)C(O)C(NC(=O)OC(C)(C)C)c4ccccc4)CC(O)(C(OC(=O)c4ccccc4)C21)C3(C)C (stereo not given) + CCn1c(-c2cccnc2C(C)OC)c2c3cc(ccc31)N1CCOC(CC(NC(=O)C(C(C)C)N(C)C(=O)C3(F)CCN(C(=O)C#CC(C)(C)N(C)C)CC3)C(=O)N3CCCC(N3)C(=O)OCC(C)(C)C2)C1 n

Lab note: viability, T/C threshold 70%. Does this compound come in strictly under it? CC(C)n1nc(-c2ccc3oc(N)nc3c2)c2c(N)ncnc21 + CCn1c(-c2cccnc2C(C)OC)c2c3cc(ccc31)N1CCOC(CC(NC(=O)C(C(C)C)N(C)C(=O)C3(F)CCN(C(=O)C#CC(C)(C)N(C)C)CC3)C(=O)N3CCCC(N3)C(=O)OCC(C)(C)C2)C1 y

Lab note: viability, T/C threshold 70%. Does this compound come in strictly under it? C[C@@H](NC(=O)c1ncnc(N)c1Cl)c1ncc(C(=O)Nc2cc(C(F)(F)F)c(Cl)cn2)s1 + CCn1c(-c2cccnc2C(C)OC)c2c3cc(ccc31)N1CCOC(CC(NC(=O)C(C(C)C)N(C)C(=O)C3(F)CCN(C(=O)C#CC(C)(C)N(C)C)CC3)C(=O)N3CCCC(N3)C(=O)OCC(C)(C)C2)C1 n

Lab note: viability, T/C threshold 70%. Does this compound come in strictly under it? CC(C)NCC(C(=O)N1CCN(c2ncnc3c2C(C)CC3O)CC1)c1ccc(Cl)cc1 (stereo not given) + CCn1c(-c2cc(N3CCN(C)CC3)cnc2C(C)OC)c2c3cc(ccc31)-c1csc(n1)CC(NC(=O)C1CC1C)C(=O)N1CCCC(N1)C(=O)OCC(C)(C)C2 n

Lab note: viability, T/C threshold 70%. Does this compound come in strictly under it? CC(Nc1ccc2c(c1)OCCn1cc(N3C(=O)OCC3C(F)F)nc1-2)C(N)=O (stereo not given) + CCn1c(-c2cccnc2C(C)OC)c2c3cc(ccc31)N1CCOC(CC(NC(=O)C(C(C)C)N(C)C(=O)C3(F)CCN(C(=O)C#CC(C)(C)N(C)C)CC3)C(=O)N3CCCC(N3)C(=O)OCC(C)(C)C2)C1 n

Lab note: viability, T/C threshold 70%. Does this compound come in strictly under it? CCC(CC)c1cc(NC2CCC(N)C2)n2nccc2n1 (stereo not given) + CCn1c(-c2cc(N3CCN(C)CC3)cnc2C(C)OC)c2c3cc(ccc31)-c1csc(n1)CC(NC(=O)C1CC1C)C(=O)N1CCCC(N1)C(=O)OCC(C)(C)C2 n

Lab note: viability, T/C threshold 70%. Does this compound come in strictly under it? Cc1nc(N2CCC3(CC2)COC(C)C3N)c(CO)nc1Sc1ccnc(N)c1Cl (stereo not given) + CCn1c(-c2cccnc2C(C)OC)c2c3cc(ccc31)N1CCOC(CC(NC(=O)C(C(C)C)N(C)C(=O)C3(F)CCN(C(=O)C#CC(C)(C)N(C)C)CC3)C(=O)N3CCCC(N3)C(=O)OCC(C)(C)C2)C1 n

Lab note: viability, T/C threshold 70%. Does this compound come in strictly under it? O=C(c1ccc(F)c(F)c1Nc1ccc(I)cc1F)N1CC(O)([C@@H]2CCCCN2)C1 + CCn1c(-c2cccnc2C(C)OC)c2c3cc(ccc31)N1CCOC(CC(NC(=O)C(C(C)C)N(C)C(=O)C3(F)CCN(C(=O)C#CC(C)(C)N(C)C)CC3)C(=O)N3CCCC(N3)C(=O)OCC(C)(C)C2)C1 n

Lab note: viability, T/C threshold 70%. Does this compound come in strictly under it? O=C(c1ccc(F)c(F)c1Nc1ccc(I)cc1F)N1CC(O)([C@@H]2CCCCN2)C1 + CCn1c(-c2cc(N3CCN(C)CC3)cnc2C(C)OC)c2c3cc(ccc31)-c1csc(n1)CC(NC(=O)C1CC1C)C(=O)N1CCCC(N1)C(=O)OCC(C)(C)C2 y

Lab note: viability, T/C threshold 70%. Does this compound come in strictly under it? CC(C)NCC(C(=O)N1CCN(c2ncnc3c2C(C)CC3O)CC1)c1ccc(Cl)cc1 (stereo not given) + CCn1c(-c2cccnc2C(C)OC)c2c3cc(ccc31)N1CCOC(CC(NC(=O)C(C(C)C)N(C)C(=O)C3(F)CCN(C(=O)C#CC(C)(C)N(C)C)CC3)C(=O)N3CCCC(N3)C(=O)OCC(C)(C)C2)C1 n

Lab note: viability, T/C threshold 70%. Does this compound come in strictly under it? CC(=O)OC12COC1CC(O)C1(C)C(=O)C(O)C3=C(C)C(OC(=O)C(O)C(NC(=O)OC(C)(C)C)c4ccccc4)CC(O)(C(OC(=O)c4ccccc4)C21)C3(C)C (stereo not given) + CCn1c(-c2cc(N3CCN(C)CC3)cnc2C(C)OC)c2c3cc(ccc31)-c1csc(n1)CC(NC(=O)C1CC1C)C(=O)N1CCCC(N1)C(=O)OCC(C)(C)C2 y
